B1: F1*; the commonest letter at each place (parent)
chain: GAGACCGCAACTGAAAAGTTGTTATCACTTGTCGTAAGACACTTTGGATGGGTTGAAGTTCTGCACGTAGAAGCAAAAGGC

# Variants of: B1
# test.method.notes: fraction ligated after 30 min (ligated reads / total reads); higher = more ligase activity
# run.conditions: with F1*sub RNA substrate (template-directed ligation), 42 °C
// label = fulfilled if fraction ligated is not less than 0.8, otherwise not fulfilled

Consider the following illustrative entries.
[
  {
    "alteration": "A24G C26G",
    "cat": "not fulfilled"
  },
  {
    "alteration": "C26A A56T",
    "cat": "not fulfilled"
  },
  {
    "alteration": "G31T C40A",
    "cat": "fulfilled"
  }
]

Would you kindly look at the next entry?
query: Confirm if fraction ligated reported for the variant T45G A48G is 0.8 or above.
result: not fulfilled
